Measured log10(ratio over background) accompanies every entry in the list below.
# TARGET OR SYSTEM: T1, soluble human insulin receptor-immunoglobulin heavy chain chimera (human, UniProt P06213 28-956, limits assumed)
# T1 construct: extracellular domain; also called sIR-Fc; IR (prepared according to Bass et al., 1996); not shown: immunoglobulin heavy chain constant domains (Bass et al., 1996)
# EXPERIMENT NOTES: phage ELISA
The base-10 logarithm of ratio over background, taken with ratio over background in ratio, is what appears here.

// known answers, use as guide
[[record]]
binder = "PAGPCGFYCGLGLLLHGDQSP (on phage) [20E2B-4-H8-IGFR]"
endpoint_value = -0.05

[[record]]
binder = "FYDAIDQLVRGSARAGGTRD (on phage) [R20α-3-20E2-IR]"
endpoint_value = 0.49

[[record]]
binder = "TSEVQRRSQDNFYDWFVAQVA (on phage) [A6S-3-E2-IR]"
endpoint_value = 0.99

[[record]]
binder = "APDPSDFQEIFYDWFVRQVSRMPGGG (on phage) [H2CA-1-A3-IGFR]"
endpoint_value = -0.10

[[record]]
binder = "SSIGGGFHENFYDWFSRQLSQSPPLK (on phage) [H2CA-4-F7-IGFR]"
endpoint_value = -0.10

[[record]]
binder = "SACQFDCHENFYDWFARQVSGGAAYG (on phage) [H2CA-4-E8-IGFR]"
endpoint_value = 0.00


Now for another entry.
Request: Need log10(ratio over background) of GRTMAVMAAGGPDDPFYHKLSELVQGG (on phage) [B6Hα-2-D6-IR] , thanks.
Response: 0.00

Origin of the recorded values: patent US20040023887A1
